test system: HSV-1; experiment: microbe, parasite or virus in culture; format: cell-based; conditions: Human alphaherpesvirus 1; Vero cells; peptides added after 1 h virus absorption; plaques counted at ~55 h; read-out: EC50, inhibition of HSV-1 plaque formation
Readout name: EC50
Answer as a quantity: numeral, then unit.

Data request: Using known records, supply EC50 for Nc1nc2c(ncn2COCCO)c(=O)[nH]1 [Acyclovir, reference compound]
Data returned: 0.81 µM
